system: CD2F1 mice, L1210 leukemia ip, survival T/C; assay: NCI In Vivo Anticancer Drug Screen. Data for tumor model L1210 Leukemia (intraperitoneal) in CD2F1 (CDF1) mice; conditions: endpoint: mean survival time; dose: 400.0 mg/kg/injection; schedule: Q01DX009 (ip); vehicle: Klucel (hydroxypropylcellulose) (HPC); higher = longer survival
Inconclusive results and toxic doses are left out.
assayReadout: T/C

1. COC(=O)COc1cccc(NC(=O)CC(=O)c2cccc([N+](=O)[O-])c2)c1: 96 % of control
2. O=C1Nc2ccccc2/C1=C\c1ccccc1O: 96 % of control
3. CCCC(=O)Nc1ccc(O)cc1: 123 % of control

Below are 4 compounds. Give each one its T/C.
1. c1ccc(N/N=C2/c3ccccc3CC23OC3c2ccccc2)cc1 (configuration not stated)
2. CCOC(=O)c1ccc(NNS(=O)(=O)c2cccc(N)c2)cc1
3. CNC(=O)c1n[nH]c(C)c1[N+](=O)[O-]
4. O=[N+]([O-])c1ccc2[nH]c3c(c2c1)CSCC3

1: 97 % of control; 2: 101 % of control; 3: 102 % of control; 4: 92 % of control

====

Give T/C for every item shown.
system: CD2F1 mice, L1210 leukemia ip, survival T/C; experiment: NCI In Vivo Anticancer Drug Screen. Data for tumor model L1210 Leukemia (intraperitoneal) in CD2F1 (CDF1) mice; conditions: endpoint: mean survival time; dose: 200.0 mg/kg/injection; schedule: Q04DX003 (ip); vehicle: saline with Tween-80; higher = longer survival
Toxic doses and inconclusive results are not listed.

Worked cases, answers included:
1) COc1ccc(-n2cnnn2)cc1: 106 % of control
2) O=C1c2ccccc2-c2ccc(-c3ccc4c5c(cccc35)C(=O)c3ccccc3-4)c3cccc1c23: 97 % of control
3) O=C(O)c1cccnc1F: 98 % of control
4) C1CC2CCC3CCCC4CCC(C1)C2C34 (configuration not stated): 102 % of control

Below are 7 compounds. Give each one its T/C.
1. Nc1ccc2[nH]c(=S)sc2c1
2. O=C(Oc1ccccc1Cl)c1ccccc1
3. CC(=O)Nc1ccc(S(=O)(=O)OCCCl)cc1
4. NC(=Nc1ccc(Cl)cc1)/N=C(/N)N1CCN(/C(N)=N/C(N)=Nc2ccc(Cl)cc2)CC1
5. NC(CSCc1ccccc1)C(=O)OCc1ccccc1 (configuration not stated)
6. CCOC(=O)CC(C)(CC(=O)OCC)C(C#N)C(=O)OCC (configuration not stated)
7. CC1(C)CC(=O)C2=C(C1)OC1(O)CC(C)(C)CC(=O)C1C2c1ccccc1Cl (configuration not stated)

["92 % of control", "100 % of control", "110 % of control", "98 % of control", "102 % of control", "119 % of control", "94 % of control"]

Consider the compound O=C1NC(=O)C2(CCc3ccccc32)N1 (configuration not stated) and give its recorded T/C.
98 % of control

====

Tested on: CD2F1 mice, L1210 leukemia ip, survival T/C
Experiment: NCI In Vivo Anticancer Drug Screen. Data for tumor model L1210 Leukemia (intraperitoneal) in CD2F1 (CDF1) mice
Conditions: endpoint: mean survival time; dose: 200.0 mg/kg/injection; schedule: Q01DX009 (ip); vehicle: saline with Tween-80; higher = longer survival
Experimental: The antitumor activity of compounds was measured in mice bearing transplantable tumors. Survival or tumor size were measured and the results are expressed as the measurement made in the treated group (T) divided by the measurement made in the vehicle treated control group (C). The tumor model used in this assay is L1210 Leukemia (intraperitoneal) in CD2F1 (CDF1) mice
Inconclusive results and toxic doses are left out.
Give T/C for every item shown.

Below are 8 molecules. Give each one its T/C.
1. Cc1ccccc1NC(=S)Nc1ccccn1
2. CC(=O)Nc1ccc(/C=N/NC(=O)COc2ccccc2)cc1
3. CC(=O)Nc1c(N)nc(Nc2nc3ccccc3[nH]2)[nH]c1=O
4. CCCCCC(O)CCCC (configuration not stated)
5. COCC1C(N)C(C)NC(Cl)C1C#N (configuration not stated)
6. CC(=O)C1C(=O)OC2(C)C(=O)C3=COC(/C=C\C(C)=C/C(C)C)=CC3=CC12 (configuration not stated)
7. Cc1ccc(S(=O)(=O)OCC(OS(=O)(=O)c2ccc(C)cc2)C2OC3OC(C)(C)OC3C2OS(=O)(=O)c2ccc(C)cc2)cc1 (configuration not stated)
8. C1CC2CCC3CCCC4CCC(C1)C2C34 (configuration not stated)

["98 % of control", "94 % of control", "95 % of control", "106 % of control", "97 % of control", "104 % of control", "103 % of control", "100 % of control"]
